# Tested on: TNF-α
# protocolNotes: Inhibition of TNF-α secretion in LPS stimulated peripheral blood mononuclear cells
# Type: cell-based
# settings: LPS stimulated human PBMC, 18 hours, ELISA; read-out: The median inhibition concentration (IC50, nM) of TNF-α
measurementType: IC50 (nM)
The reply should contain only the number, in nM.

                                   molecule  reported
0  Cc1ccc(-c2cn(CC(=O)N3CCCC3)nn2)cc1C(=O)c1ccc(Nc2ccc(F)cc2F)cc1Cl [Compound 114]       0.3
1  Cc1ccc(-c2cn(CC(=O)NC(C)(C)CO)nn2)cc1C(=O)c1ccc(Nc2ccc(F)cc2F)cc1Cl [Compound 113]       0.6
2  Cc1cc(F)ccc1Nc1ccc(C(=O)c2cc(-n3cc(CCO)nn3)ccc2C)c(Cl)c1 [Compound 143]         1
3  Cc1ccc(-c2cn(CCNS(C)(=O)=O)nn2)cc1C(=O)c1ccc(Nc2ccc(F)cc2F)cc1Cl [Compound 109]       1.2

Req: Query IC50 on TNF-α for Cc1ccc(-n2cc(CCN)nn2)cc1C(=O)c1ccc(Nc2ccc(F)cc2F)cc1Cl [Compound 136]
Resp: 1.3

Req: Return IC50 measured with TNF-α given this molecule: Cc1ccc(-n2cc(C(C)(C)O)nn2)cc1C(=O)c1ccc(Nc2ccc(F)cc2F)cc1Cl [Compound 129]
Resp: 1.4

Req: Notebook entry, TNF-α assay: IC50 of CCNC(=O)Cn1cc(-c2ccc(C)c(C(=O)c3ccc(Nc4ccc(F)cc4F)cc3Cl)c2)nn1 [Compound 112] = ?
Resp: 0.3

Req: What measured IC50 is associated with Cc1ccc(-c2cn(CCO)nn2)cc1C(=O)c1ccc(Nc2ccc(F)cc2)cc1Cl [Compound 122] on TNF-α?
Resp: 0.9

Req: Enter reported IC50 observed with TNF-α for Cc1ccc(-c2cn(CC(O)CO)nn2)cc1C(=O)c1ccc(Nc2ccc(F)cc2F)cc1Cl (stereo not drawn) [Compound 106]
Resp: 0.5

Req: # returns recorded IC50 (system: TNF-α) for CCN(CC)CCc1cn(-c2ccc(C)c(C(=O)c3ccc(Nc4ccc(F)cc4F)cc3Cl)c2)nn1 [Compound 140]
Resp: 0.8

Req: Entry Cc1ccc(-n2cc(CNC(N)=O)nn2)cc1C(=O)c1ccc(Nc2ccc(F)cc2F)cc1Cl [Compound 137] , system TNF-α: what IC50 was measured?
Resp: 0.3

Req: Given the entry Cc1ccc(-c2cn(CC(O)CO)nn2)cc1C(=O)c1ccc(Nc2ccc(F)cc2)cc1Cl (stereo not drawn) [Compound 124] , what IC50 was observed with TNF-α?
Resp: 0.5

Req: Give the reported IC50 for Cc1ccc(-n2cc(CCN3CCN(C)CC3)nn2)cc1C(=O)c1ccc(Nc2ccc(F)cc2F)cc1Cl [Compound 139] (system: TNF-α).
Resp: 0.5

Req: Can you look up IC50 on TNF-α for Cc1ccc(-c2cn(CC(N)=O)nn2)cc1C(=O)c1ccc(Nc2ccc(F)cc2F)cc1Cl [Compound 107] ?
Resp: 0.5

Req: // map CC(=O)c1cn(-c2ccc(C)c(C(=O)c3ccc(Nc4ccc(F)cc4F)cc3Cl)c2)nn1 [Compound 130] to recorded IC50 (system: TNF-α)
Resp: 0.6

Req: Field: IC50 (TNF-α). Entry: Cc1ccc(-c2cn(CCO)nn2)cc1C(=O)c1ccc(Nc2ccc(F)cc2F)cc1Cl [Compound 102]
Resp: 0.5

Req: Provide value of IC50 for this record tested with TNF-α: Cc1ccc(-c2cn(CC(=O)N3CCOCC3)nn2)cc1C(=O)c1ccc(Nc2ccc(F)cc2F)cc1Cl [Compound 115]
Resp: 0.5

Req: Form field - read-out: IC50; system: TNF-α; submitted item: Cc1ccc(-n2cc(CCNCCO)nn2)cc1C(=O)c1ccc(Nc2ccc(F)cc2F)cc1Cl [Compound 141]
Resp: 0.6

Req: IC50 of CCCNCCc1cn(-c2ccc(C)c(C(=O)c3ccc(Nc4ccc(F)cc4F)cc3Cl)c2)nn1 [Compound 142] on TNF-α?
Resp: 0.8

Req: What value of IC50 on TNF-α does Cc1ccc(-n2cc(CCN3CCOCC3)nn2)cc1C(=O)c1ccc(Nc2ccc(F)cc2F)cc1Cl [Compound 138] have?
Resp: 2

Req: Report IC50 for Cc1ccc(-n2cc(C(C)(C)N)nn2)cc1C(=O)c1ccc(Nc2ccc(F)cc2F)cc1Cl [Compound 131] tested on TNF-α.
Resp: 1.8

Req: State its IC50 on TNF-α: Cc1ccc(-c2cn(CCCO)nn2)cc1C(=O)c1ccc(Nc2ccc(F)cc2F)cc1Cl [Compound 104]
Resp: 0.5

Req: # query: IC50 | item Cc1ccc(-n2cc(CCO)nn2)cc1C(=O)c1ccc(Nc2ccc(F)cc2)cc1Cl [Compound 127] | system: TNF-α
Resp: 0.7

Req: IC50 of COc1ccc(-c2cn(CCO)nn2)cc1C(=O)c1ccc(Nc2ccc(F)cc2F)cc1Cl [Compound 120] on TNF-α?
Resp: 0.8

Req: Enter reported IC50 observed with TNF-α for Cc1ccc(-c2cn(CC(N)=O)nn2)cc1C(=O)c1ccc(Nc2ccc(F)cc2)cc1Cl [Compound 125]
Resp: 0.5

Req: Field: IC50 (TNF-α). Entry: Cc1ccccc1Nc1ccc(C(=O)c2cc(-n3cc(CCO)nn3)ccc2C)c(Cl)c1 [Compound 117]
Resp: 1.1

Req: Could you share what IC50 was measured for Cc1ccc(-n2cc(CCO)nn2)cc1C(=O)c1ccc(Nc2ccc(F)cc2F)cc1Cl [Compound 128] , tested on TNF-α?
Resp: 1
